Experiment: total protein half-life in vivo (active degradation + dilution); higher = more stable protein
Conditions: wild type E. coli NCM3722; growth: N-lim chemostat; doubling time 12 h
OBSERVABLE: total protein half-life in vivo (h)
Answer with a number only, understood to be in h.

Tell me total protein half-life in vivo reported for MKVLVTGATSGLGRNAVEFLCQKGISVRATGRNEAMGKLLEKMGAEFVPADLTELVSSQAKVMLAGIDTLWHCSSFTSPWGTQQAFDLANVRATRRLGEWAVAWGVRNFIHISSPSLYFDYHHHRDIKEDFRPHRFANEFARSKAASEEVINMLSQANPQTRFTILRPQSLFGPHDKVFIPRLAHMMHHYGSILLPHGGSALVDMTYYENAVHAMWLASQEACDKLPSGRVYNITNGEHRTLRSIVQKLIDELNIDCRIRSVPYPMLDMIARSMERLGRKSAKEPPLTHYGVSKLNFDFTLDITRAQEELGYQPVITLDEGIEKTAAWLRDHGKLPR
12.6

----------
Experiment: total protein half-life in vivo (active degradation + dilution); higher = more stable protein
Details: wild type E. coli NCM3722; growth: P-lim chemostat; doubling time 6 h
Exercise: for every item that follows, state its recorded total protein half-life in vivo.

Specify total protein half-life in vivo for MKLFYKPGACSLASHITLRESGKDFTLVSVDLMKKRLENGDDYFAVNPKGQVPALLLDDGTLLTEGVAIMQYLADSVPDRQLLAPVNSISRYKTIEWLNYIATELHKGFTPLFRPDTPEEYKPTVRAQLEKKLQYVNEALKDEHWICGQRFTIADAYLFTVLRWAYAVKLNLEGLEHIAAFMQRMAERPEVQDALSAEGLK [P0A9D2] and stop.
5.44 h

Quickly give me recorded total protein half-life in vivo for MSLPMLQVALDNQTMDSAYETTRLIAEEVDIIEVGTILCVGEGVRAVRDLKALYPHKIVLADAKIADAGKILSRMCFEANADWVTVICCADINTAKGALDVAKEFNGDVQIELTGYWTWEQAQQWRDAGIGQVVYHRSRDAQAAGVAWGEADITAIKRLSDMGFKVTVTGGLALEDLPLFKGIPIHVFIAGRSIRDAASPVEAARQFKRSIAELWG
2.69 h

Report measured total protein half-life in vivo; entry is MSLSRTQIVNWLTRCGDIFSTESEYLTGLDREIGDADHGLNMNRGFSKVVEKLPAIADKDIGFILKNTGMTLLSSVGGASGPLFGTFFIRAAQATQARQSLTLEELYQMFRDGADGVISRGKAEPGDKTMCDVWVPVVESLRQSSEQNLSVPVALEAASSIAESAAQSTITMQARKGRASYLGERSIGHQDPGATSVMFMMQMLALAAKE
4.75 h

----------
Assay: total protein half-life in vivo (active degradation + dilution); higher = more stable protein
Settings: E. coli NCM3722 delta-hslV; growth: N-lim chemostat; doubling time 6 h
OBSERVABLE: total protein half-life in vivo (h)
Response body: numeric value in h, unit text excluded.

Identify total protein half-life in vivo associated with the sequence MNKVVLLCRPGFEKECAAEITDKAGQREIFGFARVKENAGYVIYECYQPDDGDKLIRELPFSSLIFARQWFVVGELLQHLPPEDRITPIVGMLQGVVEKGGELRVEVADTNESKELLKFCRKFTVPLRAALRDAGVLANYETPKRPVVHVFFIAPGCCYTGYSYSNNNSPFYMGIPRLKFPADAPSRSTLKLEEAFHVFIPADEWDERLANGMWAVDLGACPGGWTYQLVKRNMWVYSVDNGPMAQSLMDTGQVTWLREDGFKFRPTRSNISWMVCDMVEKPAKVAALMAQWLVNGWCRETIFNLKLPMKKRYEEVSHNLAYIQAQLDEHGINAQIQARQLYHDREEVTVHVRRIWAAVGGRRDER [P0ADR6]
4.77

Please list total protein half-life in vivo recorded for the sequence MSKNYHIAVLPGDGIGPEVMTQALKVLDAVRNRFAMRITTSHYDVGGAAIDNHGQPLPPATVEGCEQADAVLFGSVGGPKWEHLPPDQQPERGALLPLRKHFKLFSNLRPAKLYQGLEAFCPLRADIAANGFDILCVRELTGGIYFGQPKGREGSGQYEKAFDTEVYHRFEIERIARIAFESARKRRHKVTSIDKANVLQSSILWREIVNEIATEYPDVELAHMYIDNATMQLIKDPSQFDVLLCSNLFGDILSDECAMITGSMGMLPSASLNEQGFGLYEPAGGSAPDIAGKNIANPIAQILSLALLLRYSLDADDAACAIERAINRALEEGIRTGDLARGAAAVSTDEMGDIIARYVAEGV
2.43

Give total protein half-life in vivo for MIQPISGPPPGQPPGQGDNLPSGTGNQPLSSQQRTSLESLMTKVTSLTQQQRAELWAGIRHDIGLSGDSPLLSRHFPAAEHNLAQRLLAAQKSHSARQLLAQLGEYLRLGNNRQAVTDYIRHNFGQTPLNQLSPEQLKTILTLLQEGKMVIPQPQQREATDRPLLPAEHNALKQLVTKLAAATGEPSKQIWQSMLELSGVKDGELIPAKLFNHLVTWLQARQTLSQQNTPTLESLQMTLKQPLDASELAALSAYIQQKYGLSAQSSLSSAQAEDILNQLYQRRVKGIDPRVMQPLLNPFPPMMDTLQNMATRPALWILLVAIILMLVWLVR
3.71

Recall and state the measured total protein half-life in vivo for MSALFLAIPLTIFVLFVLPIWLWLHYSNRSGRSELSQSEQQRLAQLADEAKRMRERIQALESILDAEHPNWRDR [P0AFM9] .
6.22

Output measured total protein half-life in vivo for this item: MSETASWQPSASIPNLLKRAAIMAEIRRFFADRGVLEVETPCMSQATVTDIHLVPFETRFVGPGHSQGMNLWLMTSPEYHMKRLLVAGCGPVFQLCRSFRNEEMGRYHNPEFTMLEWYRPHYDMYRLMNEVDDLLQQVLDCPAAESLSYQQAFLRYLEIDPLSADKTQLREVAAKLDLSNVADTEEDRDTLLQLLFTFGVEPNIGKEKPTFVYHFPASQASLAQISTEDHRVAERFEVYYKGIELANGFHELTDAREQQQRFEQDNRKRAARGLPQHPIDQNLIEALKVGMPDCSGVALGVDRLVMLALGAETLAEVIAFSVDRA [P0A8N7]
3.95

State its total protein half-life in vivo for this sequence: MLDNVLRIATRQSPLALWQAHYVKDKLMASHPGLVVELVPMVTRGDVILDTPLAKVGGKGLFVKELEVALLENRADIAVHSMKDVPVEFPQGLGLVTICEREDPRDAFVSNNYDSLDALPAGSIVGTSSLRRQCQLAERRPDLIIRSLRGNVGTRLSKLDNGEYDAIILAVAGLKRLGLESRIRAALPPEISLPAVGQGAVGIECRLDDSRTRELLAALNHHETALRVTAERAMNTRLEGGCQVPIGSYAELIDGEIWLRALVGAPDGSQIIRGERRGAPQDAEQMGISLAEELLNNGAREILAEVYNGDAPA
4.03

State its total protein half-life in vivo: MNYSLKQLKVFVTVAQEKSFSRAGERIGLSQSAVSHSVKELENHTGVRLLDRTTREVVLTDAGQQLALRLERLLDELNSTLRDTGRMGQQLSGKVRVAASQTISAHLIPQCIAESHRRYPDIQFVLHDRPQQWVMESIRQGDVDFGIVIDPGPVGDLQCEAILSEPFFLLCHRDSALAVEDYVPWQALQGAKLVLQDYASGSRPLIDAALARNGIQANIVQEIGHPATLFPMVAAGIGISILPALALPLPEGSPLVVKRITPVVERQLMLVRRKNRSLSTAAEALWDVVRDQGNALMAGREGDPLYQI [P0ACR7]
5.19

Specify total protein half-life in vivo for MSKAGASLATCYGPVSADVIAKAENIRLLILDVDGVLSDGLIYMGNNGEELKAFNVRDGYGIRCALTSDIEVAIITGRKAKLVEDRCATLGITHLYQGQSNKLIAFSDLLEKLAIAPENVAYVGDDLIDWPVMEKVGLSVAVADAHPLLIPRADYVTRIAGGRGAVREVCDLLLLAQGKLDEAKGQSI [P0ABZ4] and stop.
4.75

Item MSDQQQPPVYKIALGIEYDGSKYYGWQRQNEVRSVQEKLEKALSQVANEPITVFCAGRTDAGVHGTGQVVHFETTALRKDAAWTLGVNANLPGDIAVRWVKTVPDDFHARFSATARRYRYIIYNHRLRPAVLSKGVTHFYEPLDAERMHRAAQCLLGENDFTSFRAVQCQSRTPWRNVMHINVTRHGPYVVVDIKANAFVHHMVRNIVGSLMEVGAHNQPESWIAELLAAKDRTLAAATAKAEGLYLVAVDYPDRYDLPKPPMGPLFLAD : provide total protein half-life in vivo
3.92

Determine its reported total protein half-life in vivo: MKRYTPDFPEMMRLCEMNFSQLRRLLPRNDAPGETVSYQVANAQYRLTIVESTRYTTLVTIEQTAPAISYWSLPSMTVRLYHDAMVAEVCSSQQIFRFKARYDYPNKKLHQRDEKHQINQFLADWLRYCLAHGAMAIPVY [P0ADU7]
1.79

Specify reported total protein half-life in vivo for the sequence shown: MKKTLLAAGAVLALSSSFTVNAAENDKPQYLSDWWHQSVNVVGSYHTRFGPQIRNDTYLEYEAFAKKDWFDFYGYADAPVFFGGNSDAKGIWNHGSPLFMEIEPRFSIDKLTNTDLSFGPFKEWYFANNYIYDMGRNKDGRQSTWYMGLGTDIDTGLPMSLSMNVYAKYQWQNYGAANENEWDGYRFKIKYFVPITDLWGGQLSYIGFTNFDWGSDLGDDSGNAINGIKTRTNNSIASSHILALNYDHWHYSVVARYWHDGGQWNDDAELNFGNGNFNVRSTGWGGYLVVGYNF [P0A927]
6.33
